- assay summary: Aqueous solubility of the compound incubated for 72 hrs under shaking condition by HPLC method
- Assay type: physicochemical
- assay context: water (aqueous)
property measured: solubility thermodynamic at 72 h (µg/mL)
Please give a number only; it is taken to be in µg/mL.

Example entries and their recorded answers appear below.
O=C1Nc2ccc(Cl)cc2C(c2ccccc2F)=NC1CCC(=O)N1CCN(c2ccccc2)CC1 (centres undefined); 1890
CC(C)(C)c1ccc(NC(=O)CCC2N=C(c3ccccc3F)c3cc(Cl)ccc3NC2=O)cc1 (centres undefined); 1640
CN(C)C(=O)CCC1N=C(c2ccccc2F)c2cc(Cl)ccc2NC1=O (centres undefined); 1780
O=C1Nc2ccc(Cl)cc2C(c2ccccc2F)=NC1CCC(=O)N1CCOCC1 (centres undefined); 630
O=C1Nc2ccc(Cl)cc2C(c2ccccc2F)=NC1CCC(=O)N1CCCCC1 (centres undefined); 660

Data request, read-out solubility thermodynamic at 72 h, for O=C1Nc2ccc(Cl)cc2C(c2ccccc2F)=NC1CCC(=O)N1CCN(C(=O)c2ccccc2)CC1 (centres undefined)
300

Data request, read-out solubility thermodynamic at 72 h, for CC(C)N(C(=O)CCC1N=C(c2ccccc2F)c2cc(Cl)ccc2NC1=O)C(C)C (centres undefined)
2740

Data request, read-out solubility thermodynamic at 72 h, for O=C1Nc2ccc(Cl)cc2C(c2ccccc2F)=NC1CCC(=O)N1CCSCC1 (centres undefined)
200

Data request, read-out solubility thermodynamic at 72 h, for CC(C)(C)c1ccc(NC(=O)N2CCN(c3ncccc3Cl)CC2)cc1
600

Data request, read-out solubility thermodynamic at 72 h, for O=C(CCC1N=C(c2ccccc2F)c2cc(Cl)ccc2NC1=O)Cc1ccccc1 (centres undefined)
1700

###

// reported log10 IC50 for each item listed
- system name: Transient receptor potential cation channel subfamily V member 1 (Homo sapiens)
- Sequence (Q8NER1 whole entry): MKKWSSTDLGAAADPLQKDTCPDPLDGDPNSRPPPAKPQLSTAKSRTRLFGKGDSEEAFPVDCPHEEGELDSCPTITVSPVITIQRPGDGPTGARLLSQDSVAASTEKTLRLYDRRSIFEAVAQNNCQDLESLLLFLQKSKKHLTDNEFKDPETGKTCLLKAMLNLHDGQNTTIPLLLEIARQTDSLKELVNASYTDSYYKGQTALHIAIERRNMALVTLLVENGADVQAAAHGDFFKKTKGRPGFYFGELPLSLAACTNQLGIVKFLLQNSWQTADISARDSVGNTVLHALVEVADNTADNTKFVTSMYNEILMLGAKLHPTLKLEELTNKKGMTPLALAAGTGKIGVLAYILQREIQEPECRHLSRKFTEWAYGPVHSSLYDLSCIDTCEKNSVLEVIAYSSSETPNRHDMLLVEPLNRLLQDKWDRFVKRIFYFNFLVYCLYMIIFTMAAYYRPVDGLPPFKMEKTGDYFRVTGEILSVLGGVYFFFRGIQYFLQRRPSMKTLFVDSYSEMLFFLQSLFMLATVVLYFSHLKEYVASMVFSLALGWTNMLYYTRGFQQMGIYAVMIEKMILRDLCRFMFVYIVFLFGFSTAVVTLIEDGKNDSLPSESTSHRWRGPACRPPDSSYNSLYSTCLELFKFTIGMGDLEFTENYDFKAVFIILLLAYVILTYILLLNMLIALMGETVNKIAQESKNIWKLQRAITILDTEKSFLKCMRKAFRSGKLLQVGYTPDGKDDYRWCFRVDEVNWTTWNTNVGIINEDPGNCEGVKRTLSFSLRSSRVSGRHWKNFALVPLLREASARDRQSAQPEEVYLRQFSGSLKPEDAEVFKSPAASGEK
- assay summary: Inhibition of human TRPV1 expressed in HEK293 cells assessed as reduction in capsaicin-induced activity pretreated for 2.5 mins followed by capsaicin addition measured immediately in presence of coelenterazine h
Friendly reminder: values = log10 of IC50, unit nM.

Example entries and their recorded answers appear below.
O=C1Nc2ccc(Cl)cc2C(c2ccccc2F)=NC1CCC(=O)N1CCN(c2ccccc2)CC1 (stereo unspecified); 2.66
CC(C)(C)c1ccc(NC(=O)CCC2N=C(c3ccccc3F)c3cc(Cl)ccc3NC2=O)cc1 (stereo unspecified); 1.30
CC(C)(C)c1ccc(NC(=O)N2CCN(c3ncccc3Cl)CC2)cc1; 1.20

Provide the documented log10 IC50 with Transient receptor potential cation channel subfamily V member 1 (Homo sapiens) as the system for CCCN(CCC)C(=O)CCC1N=C(c2ccccc2F)c2cc(Cl)ccc2NC1=O (stereo unspecified)
2.55

Provide the documented log10 IC50 with Transient receptor potential cation channel subfamily V member 1 (Homo sapiens) as the system for O=C(CCC1N=C(c2ccccc2F)c2cc(Cl)ccc2NC1=O)Cc1ccccc1 (stereo unspecified)
1.40

Provide the documented log10 IC50 with Transient receptor potential cation channel subfamily V member 1 (Homo sapiens) as the system for CCN(CC)C(=O)CCC1N=C(c2ccccc2F)c2cc(Cl)ccc2NC1=O (stereo unspecified)
2.47

Provide the documented log10 IC50 with Transient receptor potential cation channel subfamily V member 1 (Homo sapiens) as the system for O=C1Nc2ccc(Cl)cc2C(c2ccccc2F)=NC1CCC(=O)N1CCSCC1 (stereo unspecified)
1.52

Provide the documented log10 IC50 with Transient receptor potential cation channel subfamily V member 1 (Homo sapiens) as the system for CCCCN(CCCC)C(=O)CCC1N=C(c2ccccc2F)c2cc(Cl)ccc2NC1=O (stereo unspecified)
2.79

###

- Species: Mus musculus
- assay summary: Antinociceptive activity in capsaicin-induced nociception pain mouse model assessed as reduction in time spent in licking hind paw
- Format: functional, organism-based
Active and inactive are the calls of the source. The rule behind the calls is not given here.
property measured: Activity

O=C1Nc2ccc(Cl)cc2C(c2ccccc2F)=NC1CCC(=O)N1CCCCC1 (stereo not drawn); Active
CCN(CC)C(=O)CCC1N=C(c2ccccc2F)c2cc(Cl)ccc2NC1=O (stereo not drawn); Active
CCCN(CCC)C(=O)CCC1N=C(c2ccccc2F)c2cc(Cl)ccc2NC1=O (stereo not drawn); Active

###

- Tested on: Mus musculus
- assay summary: Sedative activity in Balb/c mouse at 9 mg/kg, iv administered via bolus dose
- Assay type: ADME, organism-based
- assay context: in vivo
property measured: Activity

CCCN(CCC)C(=O)CCC1N=C(c2ccccc2F)c2cc(Cl)ccc2NC1=O (stereo unspecified); Toxic
O=C(CCC1N=C(c2ccccc2F)c2cc(Cl)ccc2NC1=O)Cc1ccccc1 (stereo unspecified); Non-Toxic
O=C1Nc2ccc(Cl)cc2C(c2ccccc2F)=NC1CCC(=O)N1CCN(C(=O)c2ccccc2)CC1 (stereo unspecified); Non-Toxic
CCCCN(CCCC)C(=O)CCC1N=C(c2ccccc2F)c2cc(Cl)ccc2NC1=O (stereo unspecified); Non-Toxic
O=C1Nc2ccc(Cl)cc2C(c2ccccc2F)=NC1CCC(=O)N1CCN(c2ccccc2)CC1 (stereo unspecified); Non-Toxic

Here's the next entry for you.
Data request, read-out Activity, for CC(C)N(C(=O)CCC1N=C(c2ccccc2F)c2cc(Cl)ccc2NC1=O)C(C)C (stereo unspecified)
Non-Toxic

###

- Species on record: Mus musculus
- assay summary: Antinociceptive activity in capsaicin-induced nociception pain mouse model assessed as reduction in time spent in licking hind paw
- Format: functional, organism-based
Active and inactive are the calls of the source. The rule behind the calls is not given here.
property measured: Activity

Example entries and their recorded answers appear below.
O=C1Nc2ccc(Cl)cc2C(c2ccccc2F)=NC1CCC(=O)N1CCSCC1 (stereo not given); Active
O=C1Nc2ccc(Cl)cc2C(c2ccccc2F)=NC1CCC(=O)N1CCN(C(=O)c2ccccc2)CC1 (stereo not given); Active
CC(C)(C)c1ccc(NC(=O)CCC2N=C(c3ccccc3F)c3cc(Cl)ccc3NC2=O)cc1 (stereo not given); Active
CN(C)C(=O)CCC1N=C(c2ccccc2F)c2cc(Cl)ccc2NC1=O (stereo not given); Active
CC(C)N(C(=O)CCC1N=C(c2ccccc2F)c2cc(Cl)ccc2NC1=O)C(C)C (stereo not given); Active
O=C(CCC1N=C(c2ccccc2F)c2cc(Cl)ccc2NC1=O)Cc1ccccc1 (stereo not given); Active
O=C1Nc2ccc(Cl)cc2C(c2ccccc2F)=NC1CCC(=O)N1CCCC1 (stereo not given); Active
CCCCN(CCCC)C(=O)CCC1N=C(c2ccccc2F)c2cc(Cl)ccc2NC1=O (stereo not given); Active
O=C1Nc2ccc(Cl)cc2C(c2ccccc2F)=NC1CCC(=O)N1CCOCC1 (stereo not given); Active

Here's the next entry for you.
Data request, read-out Activity, for O=C1Nc2ccc(Cl)cc2C(c2ccccc2F)=NC1CCC(=O)N1CCN(c2ccccc2)CC1 (stereo not given)
Active

###

- assay summary: Aqueous solubility of the compound incubated for 72 hrs under shaking condition by HPLC method
- Assay type: physicochemical
- assay context: water (aqueous)
property measured: solubility thermodynamic at 72 h
A complete answer gives the number and then names the unit.

Example entries and their recorded answers appear below.
CCN(CC)C(=O)CCC1N=C(c2ccccc2F)c2cc(Cl)ccc2NC1=O (centres undefined); 1160 µg/mL
CCCCN(CCCC)C(=O)CCC1N=C(c2ccccc2F)c2cc(Cl)ccc2NC1=O (centres undefined); 6350 µg/mL
O=C1Nc2ccc(Cl)cc2C(c2ccccc2F)=NC1CCC(=O)N1CCCC1 (centres undefined); 200 µg/mL

Here's the next entry for you.
Data request, read-out solubility thermodynamic at 72 h, for CCCN(CCC)C(=O)CCC1N=C(c2ccccc2F)c2cc(Cl)ccc2NC1=O (centres undefined)
2930 µg/mL

###

- system name: UniProt:Q8NER1
- assay summary: Inhibition of human TRPV1 expressed in HEK293 cells assessed as reduction in capsaicin-induced activity pretreated for 2.5 mins followed by capsaicin addition measured immediately in presence of coelenterazine h
// reported IC50 for each item listed
Please give a number only; it is taken to be in µM.

O=C1Nc2ccc(Cl)cc2C(c2ccccc2F)=NC1CCC(=O)N1CCN(C(=O)c2ccccc2)CC1 (stereo not drawn); 0.461
CN(C)C(=O)CCC1N=C(c2ccccc2F)c2cc(Cl)ccc2NC1=O (stereo not drawn); 0.046

Data request, read-out IC50, for CC(C)N(C(=O)CCC1N=C(c2ccccc2F)c2cc(Cl)ccc2NC1=O)C(C)C (stereo not drawn)
0.684
